Overview of reported Eos across a group of compounds:
Organism: Rattus norvegicus
Assay: Open TG-GATES - Regimen: Single
Format: toxicity, organism-based, Sprague-Dawley
Parameters: regimen Single, gender Male, age 6 weeks
Conditions: in vivo, po, 30 mg/kg, 24 h, tissue Blood, route gavage, dose level Middle
Numbers only here, please. The scale is %.

Below: 3 compounds and their reported Eos.
>>> numeric_result("CC1=C(/C=C/C(C)=C/C=C/C(C)=C/CO)C(C)(C)CCC1")
0.6
>>> numeric_result("CN(C)CCCN1c2ccccc2CCc2ccccc21")
1
>>> numeric_result("CN(C)CCN(Cc1cccs1)c1ccccn1")
0.8

Now consider a different compound.
Can you share its Eos? I mean this compound: `CN(C)CCCN1c2ccccc2CCc2ccc(Cl)cc21`
0.6
